Test system: KB
PROTOCOL NOTES: Cytotoxicity against human KB cells after 48 hrs by MTT assay
Type: functional, cell-based
REPORTED PROPERTY: IC50 (µM)
Number in µM, nothing else.

COc1ccc2cc1Oc1ccc(cc1)CCc1cccc(OC)c1Oc1cccc(c1)CC2 [DIMETHYL ETHER MARCHANTIAN C]	94.9
Oc1ccc2cc1Oc1ccc(cc1)/C=C/c1cccc(O)c1Oc1cccc(c1)CC2 [DEHYDROMARCHANTIN C]	84

Requested read-out: IC50. Entry: "CC[C@]1(O)C[C@H]2CN(CCc3c([nH]c4ccccc34)[C@@](C(=O)OC)(c3cc4c(cc3OC)N(C=O)[C@H]3[C@@](O)(C(=O)OC)[C@H](OC(C)=O)[C@]5(CC)C=CCN6CC[C@]43[C@@H]65)C2)C1"
0.00607

Requested read-out: IC50. Entry: COc1ccc2cc1Oc1ccc(cc1)/C=C/c1cccc(OC)c1Oc1cccc(c1)CC2 [DIMETHYLETHER DEHYDROMARCHANTIN C]
93.5
